# Tested on: UACC-62
# testName: NCI tumour cell line growth inhibition, 48 h
Calls of active or inactive are those of the source. Cut-off read from the data, not from the text of the source: active = GI50 up to about 1.1 µM and inactive = higher.
readout: GI50

INSERT INTO results (compound, readout, result) VALUES
  ('CCCCN(c1ccccc1)c1ncnc2c1cnn2C', 'GI50', '31.2 µM (inactive)'),
  ('C[C@@H](CC(O)C(O)C(C)(C)O)C1CCC23CC12CCC1[C@@]2(C)CCC(=O)C(C)(C)C2CC(OC2OC(CO)C(O)C(O)C2O)[C@]13C (some centres not stated)', 'GI50', '> 10 µM (inactive)'),
  ('CCCCCCCCCCCCCB(O)O', 'GI50', '> 100 µM (inactive)'),
  ('CCn1c(-c2c(Cl)cc(O)cc2Cl)cc2c(Cl)cc(O)cc21', 'GI50', '8.49 µM (inactive)'),
  ('NC(=O)N/N=C(\CC1OC(=O)c2ccccc21)c1ccc([N+](=O)[O-])cc1 (configuration not stated)', 'GI50', '18.4 µM (inactive)'),
  ('O=C1OCCC12CN(Cc1ccccc1)N=N2 (configuration not stated)', 'GI50', '> 100 µM (inactive)'),
  ('CSc1nc2c(ncn2C2OCC(O)C(O)C2O)c(=O)[nH]1 (configuration not stated)', 'GI50', '> 100 µM (inactive)');

###

Listing: GI50 of selected compounds
# Test system: UACC-62
# testName: NCI tumour cell line growth inhibition, 48 h
Active and inactive are the calls of the source. No stated cut-off is given here; in the data, active = GI50 up to about 1.1 µM and inactive = higher.
readout: GI50

INSERT INTO measurements (compound, targetundertest, result) VALUES
  ('CCCCC(=O)Nc1ccc2c(C)cc(-c3ccc(-c4cc(-c5ccc(C)cc5)cc(-c5ccc(-c6cc(C)c7ccc(NC(=O)CCCC)nc7n6)cc5)n4)cc3)nc2n1', 'UACC-62', '> 100 µM (inactive)'),
  ('COC(=O)CC1NC(=O)C1C(C)(OC)OC (stereo not drawn)', 'UACC-62', '> 100 µM (inactive)'),
  ('COC(=S)OC1CC(n2cnc3c(=O)[nH]cnc32)OC1CO[Si](C)(C)C(C)(C)C (stereo not drawn)', 'UACC-62', '> 100 µM (inactive)'),
  ('O=C(/C=C/c1ccc2c(c1)OCO2)CC(=O)C(=O)c1c[nH]c2ccccc12', 'UACC-62', '44.2 µM (inactive)'),
  ('O=C1C(CN2CCCC2)CCC1CN1CCCC1 (stereo not drawn)', 'UACC-62', '17.5 µM (inactive)'),
  ('COC(=O)[C@@H]1C=CCN1S(=O)(=O)c1ccc(C)cc1', 'UACC-62', '38 µM (inactive)'),
  ('C[n+]1c(-c2ccc(/C=N/NC(=O)C(=O)N/N=C/c3ccc(-c4cn5ccccc5[n+]4C)cc3)cc2)cn2ccccc21', 'UACC-62', '> 100 µM (inactive)'),
  ('CC(=O)C(CN1CCOCC1)C(c1ccccc1)c1c(O)c2ccccc2oc1=O (stereo not drawn)', 'UACC-62', '> 100 µM (inactive)');

###

# Tested on: NCI-H522
# testName: NCI tumour cell line growth inhibition, 48 h
Activity calls are given as the source filed them. Cut-off read from the data, not from the text of the source: active = GI50 up to about 1.1 µM and inactive = higher. Where a SMILES comes first, the peptide text is derived from it. [ ]: non-standard residue; d: D form. The star is where a group is joined. ξ: configuration not given here. NMeF = CN[CH](Cc1ccccc1)C(=O)O; ξNMe2Val = CC(C)C(C(=O)*)N(C)C; NMeV = CN[CH](C(=O)O)C(C)C; OtBu = CC(C)(C)O*
Labels: 1 for active, 0 for inactive

INSERT INTO assay_data (molecule, assignedcategory) VALUES
  ('O=C(CC1(O)C(=O)Nc2ccccc21)c1ccc(O)cc1O (stereo not given)', 0),
  ('CC1(C)C2CCC1(C)C(NC(=O)CCN1CCOCC1)C2 (stereo not given)', 0),
  ('CCOC(=O)c1cn2c(n1)sc1cc(OC)ccc12', 0),
  ('COC1=C2CC(C)CC(OC)C(OC(=O)CN)[C@H](C)/C=C(\C)C(OC(N)=O)C(OC)/C=C\C=C(/C)C(=O)NC(=CC1=O)C2=O (stereo not given in full)', 1),
  ('O=C(/C=C/c1ccc(-c2ccccc2)cc1)NCc1ccc(C(=O)NCCc2ccccc2)cc1', 0),
  ('CC(=O)C(C(c1ccccc1)N1CCOCC1)N1CCOCC1 (stereo not given)', 0),
  ('O=P(O)(CCP(=O)(O)c1ccccc1)c1ccccc1', 0),
  ('COC1=C2C[C@@H](C)C[C@@H](OC)[C@@H](O)[C@H](C)/C=C(\C)[C@@H](OC(N)=O)[C@H](OC)/C=C\C=C(/C)C(=O)NC(=CC1=O)C2=O', 1),
  ('CC(=O)OC1COC(Nc2ccc(C(C)=O)cc2)C(OC(C)=O)C1OC(C)=O (stereo not given)', 0),
  ('O=c1[nH]c(Nc2nc3ccccc3[nH]2)nc(O)c1-c1ccccc1', 0),
  ('CC(C)=CCN1CC(C)C(=O)Nc2cc(Cl)ccc21 (stereo not given)', 0),
  ('O=C(/C=C/c1ccc2c(c1)OCO2)CC(=O)C(=O)c1c[nH]c2ccccc12', 0),
  ('C/C(=N\NC(N)=S)c1sc(-n2nc(-c3ccccc3)cc2-c2ccccc2)nc1C', 0),
  ('CCOP(=O)(OCC)OC1c2[nH]cc(C(=O)OCc3ccccc3)c2-c2cc(C(=O)OC)[nH]c2C1OC (stereo not given)', 0),
  ('CCCCn1c2c(n(CCCC)c1=[Se])-c1c(n(CCCC)c(=[Se])n1CCCC)S[Se][Se]S2', 0),
  ('C1CCC(N=C2N(C3CCCCC3)C(=NC3CCCCC3)N2C2CCCCC2)CC1', 0),
  ('Clc1ccc(Cc2nc3cc(CCN4CCN(c5ccccc5)CC4)ccc3[nH]2)cc1', 0),
  ('CN(C)C(=O)Nc1cc2c3c(c1)CCCN3CCC2', 0),
  ('CC(=O)NC1=C(C)C(=O)c2c(nc3n2CCC3O)C1=N (stereo not given)', 0),
  ('c1ccc(C2=NOC3C4CCC(C4)C23)cc1 (stereo not given)', 0),
  ('Cc1ncc([N+](=O)[O-])n1CCNCCCCn1ccnc1[N+](=O)[O-]', 0),
  ('Cc1ccccc1-c1cc(=O)c2cc(C)c(C)c(C(=O)O)c2o1', 0),
  ('ClC1c2ccccc2C2(c3ccccc3)OOC1(c1ccccc1)O2 (stereo not given)', 1),
  ('CN(N)C(=O)NCCCl', 0),
  ('CC(C)C(C(=O)N(C)C(Cc1ccccc1)C(=O)N(C)C(C(=O)N(C)C(C(=O)N1CCCC1C(=O)OC(C)(C)C)C(C)C)C(C)C)N(C)C (stereo not given) (ξNMe2Val-[NMeF][NMeV][NMeV]P-OtBu; configuration not given here)', 0);
